Origin of the recorded values: patent US8680111B2

I'd appreciate it if you could supply pKi values for the items below.
biological target: human recombinant wild-type ALK kinase domain (amino acids 1093-1411) (Homo sapiens, UniProt Q9UM73); construct: ALK kinase domain (amino acids 1093-1411); made in house; experiment: Wild-type ALK enzyme assay (microfluidic mobility shift); format: biochemical; conditions: ATP 60 μM, competitive inhibition fit, read-out: WT ALK enzyme assay (Ki)
Sequence (Q9UM73 1093-1411): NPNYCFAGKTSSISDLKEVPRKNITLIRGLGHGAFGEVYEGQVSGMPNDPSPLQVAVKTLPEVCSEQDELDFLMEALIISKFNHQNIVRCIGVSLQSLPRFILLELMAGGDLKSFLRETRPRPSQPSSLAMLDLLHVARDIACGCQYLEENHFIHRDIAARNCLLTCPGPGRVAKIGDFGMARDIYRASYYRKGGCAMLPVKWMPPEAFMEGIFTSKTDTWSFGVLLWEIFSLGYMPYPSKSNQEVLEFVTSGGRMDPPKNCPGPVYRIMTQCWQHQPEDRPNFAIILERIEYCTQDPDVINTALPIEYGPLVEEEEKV
In simple prose, pKi is minus the logarithm base ten of a concentration in moles per litre.

Q. GET /values?readout=pKi&item= C[C@H]1Oc2cc(cnc2N)-c2c(n[nH]c2C#N)CN(C)C(=O)c2ccc(F)cc21
A. 9.70

Q. GET /values?readout=pKi&item= CC(C)n1nc2c(c1C#N)-c1cnc(N)c(n1)O[C@H](C)c1cc(F)ccc1C(=O)N(C)C2
A. 9.64

Q. GET /values?readout=pKi&item= C[C@H]1Oc2cc(cnc2N)-c2c(nnn2CC2CCC2)CN(C)C(=O)c2ccc(F)cc21
A. 8.68

Q. GET /values?readout=pKi&item= CC1Oc2cc(cnc2N)-c2c(C(C)(C)C)nn(C)c2CN(C)C(=O)c2ncccc21 (single isomer, unassigned) [Example 68]
A. 6.68

Q. GET /values?readout=pKi&item= C[C@H]1Oc2cc(cnc2N)-c2c(nc3ccccn23)CN(C)C(=O)c2ccc(F)cc21
A. 9.85
